system: HCT-15 colon; experiment: NCI-60 one-dose screen, 48 h (100 = growth as untreated, 0 = no growth, -100 = all killed); conditions: 10 µM unless noted
This is part of a sample that, as a whole, favours compounds with a hit. Of some 83,000 tested, about 20% had one in any assay. Calls of active or inactive are those of the source. How the source made its calls: active means growth percent below 10; inactive means the rest.
result-type: growth

Check out these entries, answers already filled in.
>  <molecule>
CCCCCCCCn1ccc2cc(NC(=O)CN=[N+]=[N-])ccc21

>  <observed>
96.8% (inactive)

$$$$
>  <molecule>
O=CCCCOCc1ccccc1

>  <observed>
98.5% (inactive)

$$$$
>  <molecule>
COc1cc(-c2ccc(-c3ccc(C(=N)N)cc3)s2)cc(OC)c1OC

>  <observed>
58.9% (inactive)

$$$$
>  <molecule>
Cc1cc(=O)n(C(=S)Nc2ccc(Cl)cc2)c2cc(O)ccc12

>  <observed>
105% (inactive)

$$$$
>  <molecule>
Cc1ccc(C(=O)c2ccc(CC(=O)N/N=C/c3cccc(O)c3O)n2C)cc1

>  <observed>
15.7% (inactive)

$$$$

QUERY: Give the measured growth for O=C1CCCCN1c1ccc(C2=NCCCN2)cc1
RESULT: 101% (inactive)

QUERY: Give the measured growth for COCCOC(C)C(/C=N/NC(N)=S)=N/NC(N)=S (centres undefined)
RESULT: 51.8% (inactive)

QUERY: Give the measured growth for C[C@H]1[C@H](C)CC[C@]2(C(=O)NCCNCCN)CC[C@]3(C)C(=CC[C@@H]4[C@@]5(C)CCC(=O)C(C)(C)[C@@H]5CC[C@]43C)[C@H]12
RESULT: 13.1% (inactive)

QUERY: Give the measured growth for CCCCCCCCCCOC(=O)c1nn(C(C)=O)c2cc(C)c(C)cc12
RESULT: 98.8% (inactive)

QUERY: Give the measured growth for CN1CCOCCN(C)Cc2ccc3ccc(cc3c2)CN(C)CCOCCN(C)Cc2ccc3ccc(cc3c2)C1
RESULT: 73.2% (inactive)
